test system: HIV-1 (IIIB); assay: Inhibition of HIV-1 (IIIB)-induced cytopathicity (giant cell formation) in CEM cells; format: cell-based; conditions: read-out: EC50 HIV-1 (concentration required to inhibit HIV-induced giant cell formation by 50%); HIV-1, CEM cell cultures
MEASURED PARAMETER: EC50 (µM)
Expressed in µM, but write only the number.

Endpoint output: EC50 of NC(=O)CC1NC(=O)C(N)C(O)c2ccc(c(Cl)c2)Oc2cc3cc(c2O)Oc2ccc(cc2)C(O)C2NC(=O)C(NC(=O)C3NC1=O)c1ccc(O)c(c1)-c1c(O)cc(O)cc1C(C(=O)N1CCC3CCCCC3C1)NC2=O (centres unmarked) . Value?
2.8

Endpoint output: EC50 of CNC(CC(C)C)C(=O)NC1C(=O)NC(CC(N)=O)C(=O)NC2C(=O)NC3C(=O)NC(C(=O)NC(C(=O)N(C(=O)NC4CCCCC4)C4CCCCC4)c4cc(O)cc(O)c4-c4cc3ccc4O)C(O)c3ccc(cc3)Oc3cc2cc(c3O)Oc2ccc(cc2Cl)C1O (centres unmarked) . Value?
7.5

====

system: mutant HIV-1 strain Leu-100-Ile; assay: Anti-HIV-1 activity against mutant HIV-1 strain Leu-100-Ile in CEM cultures; format: cell-based
Can you tell me pEC50 for the items I'm about to list?
Units for pEC50: none; it is -log10 of a concentration expressed in mol/L.

Endpoint output: pEC50 of CCCCc1ccc(CN2CCN(Cc3c(O)cc4c(c3O)-c3cc(ccc3O)C3NC(=O)C5NC(=O)C6NC(=O)C(Cc7ccc(c(Cl)c7)Oc7cc5cc(c7O)Oc5ccc(cc5Cl)C(O)C(NC3=O)C(=O)NC4C(=O)NCCCN(C)C)NC(=O)C(N)c3ccc(O)c(c3)Oc3cc(O)cc6c3)CC2)cc1 (stereo not shown) [Compound 30] . Value?
5.22

Endpoint output: pEC50 of CCCCc1ccc(CN2CCN(Cc3c(O)cc4c(c3O)-c3cc(ccc3O)C3NC(=O)C5NC(=O)C6NC(=O)C(Cc7ccc(c(Cl)c7)Oc7cc5cc(c7O)Oc5ccc(cc5Cl)C(O)C(NC3=O)C(=O)NC4C(=O)NC)NC(=O)C(N)c3ccc(O)c(c3)Oc3cc(O)cc6c3)CC2)cc1 (stereo not shown) [Compound 31] . Value?
5.28

Endpoint output: pEC50 of CNC(=O)C1NC(=O)C2NC(=O)C(NC(=O)C3NC(=O)C4NC(=O)C(Cc5ccc(c(Cl)c5)Oc5cc3cc(c5O)Oc3ccc(cc3Cl)C2O)NC(=O)C(N)c2ccc(O)c(c2)Oc2cc(O)cc4c2)c2ccc(O)c(c2)-c2c1cc(O)c(CNC1C3CC4CC(C3)CC1C4)c2O (stereo not shown) [Compound 51] . Value?
4.62

Endpoint output: pEC50 of CN(C)CCCNC(=O)C1NC(=O)C2NC(=O)C(NC(=O)C3NC(=O)C4NC(=O)C(Cc5ccc(c(Cl)c5)Oc5cc3cc(c5O)Oc3ccc(cc3Cl)C2O)NC(=O)C(N)c2ccc(O)c(c2)Oc2cc(O)cc4c2)c2ccc(O)c(c2)-c2c1cc(O)c(CNC1C3CC4CC(C3)CC1C4)c2O (stereo not shown) [Compound 19] . Value?
4.94

====

tested on: HEL cells; conditions: anti-VZV table
MEASURED PARAMETER: MTC (HEL)

[
  {
    "COMPOUND": "CCCCCCCCCCNCc1c(O)cc2c(c1O)-c1cc(ccc1O)C1NC(=O)C3NC(=O)C4NC(=O)C(Cc5ccc(c(Cl)c5)Oc5cc3cc(c5O)Oc3ccc(cc3Cl)C(O)C(NC1=O)C(=O)NC2C(=O)NC)NC(=O)C(NC(=O)C(N)CCCCN)c1ccc(O)c(c1)Oc1cc(O)cc4c1 (stereo not shown)",
    "OBSERVED RESULT": "≧5 μM"
  },
  {
    "COMPOUND": "CCCCCCCCCC[N+](C)(C)CCCNC(=O)C1NC(=O)C2NC(=O)C(NC(=O)C3NC(=O)C4NC(=O)C(Cc5ccc(c(Cl)c5)Oc5cc3cc(c5O)Oc3ccc(cc3Cl)C2O)NC(=O)C(N)c2ccc(O)c(c2)Oc2cc(O)cc4c2)c2ccc(O)c(c2)-c2c1cc(O)c(CN1CC[N+](C)(CCCCCCCCCC)CC1)c2O (stereo not shown)",
    "OBSERVED RESULT": "≧5 μM"
  }
]
